conditions: in n-butanol, 303.15 K
MEASURED_QUANTITY: solubility (mole fraction)
Answer field: number only, no words.

Request: Entry under review: CC[C@H](C)[C@H](N)C(=O)O . Reported solubility (mole fraction)?
Result: 0.000372

---

conditions: in isopropanol, 313.15 K
MEASURED_QUANTITY: solubility (mole fraction)

Request: Entry under review: CC[C@H](C)[C@H](N)C(=O)O . Reported solubility (mole fraction)?
Result: 0.00394

---

settings: in ethyl acetate, 303.15 K
MEASURED_QUANTITY: solubility (mole fraction)
Answer field: number only, no words.

Request: Entry under review: CC[C@H](C)[C@H](N)C(=O)O . Reported solubility (mole fraction)?
Result: 0.000609

---

details: in acetonitrile, 308.15 K
MEASURED_QUANTITY: solubility (mole fraction)
Answer field: number only, no words.

Request: Entry under review: CC[C@H](C)[C@H](N)C(=O)O . Reported solubility (mole fraction)?
Result: 0.000451

---

details: in isobutanol, 293.15 K
MEASURED_QUANTITY: solubility (mole fraction)
Answer field: number only, no words.

Request: Entry under review: CC[C@H](C)[C@H](N)C(=O)O . Reported solubility (mole fraction)?
Result: 0.0015

---

settings: in 1,4-dioxane, 323.15 K
MEASURED_QUANTITY: solubility (mole fraction)
Answer field: number only, no words.

Request: Entry under review: CC[C@H](C)[C@H](N)C(=O)O . Reported solubility (mole fraction)?
Result: 0.00303

---

details: in methanol, 318.15 K
MEASURED_QUANTITY: solubility (mole fraction)

Request: Entry under review: CC[C@H](C)[C@H](N)C(=O)O . Reported solubility (mole fraction)?
Result: 0.00114

---

details: in n-propanol, 318.15 K
MEASURED_QUANTITY: solubility (mole fraction)
Answer field: number only, no words.

Request: Entry under review: CC[C@H](C)[C@H](N)C(=O)O . Reported solubility (mole fraction)?
Result: 0.0009

---

conditions: in ethanol, 323.15 K
MEASURED_QUANTITY: solubility (mole fraction)
Answer field: number only, no words.

Request: Entry under review: CC[C@H](C)[C@H](N)C(=O)O . Reported solubility (mole fraction)?
Result: 0.00118

---

settings: in n-propanol, 298.15 K
MEASURED_QUANTITY: solubility (mole fraction)

Request: Entry under review: CC[C@H](C)[C@H](N)C(=O)O . Reported solubility (mole fraction)?
Result: 0.000349

---

conditions: in isopropanol, 318.15 K
MEASURED_QUANTITY: solubility (mole fraction)
Answer field: number only, no words.

Request: Entry under review: CC[C@H](C)[C@H](N)C(=O)O . Reported solubility (mole fraction)?
Result: 0.00454

---

conditions: in 1,4-dioxane, 288.15 K
MEASURED_QUANTITY: solubility (mole fraction)
Answer field: number only, no words.

Request: Entry under review: CC[C@H](C)[C@H](N)C(=O)O . Reported solubility (mole fraction)?
Result: 0.00118

---

details: in 2-butanone, 288.15 K
MEASURED_QUANTITY: solubility (mole fraction)
Answer field: number only, no words.

Request: Entry under review: CC[C@H](C)[C@H](N)C(=O)O . Reported solubility (mole fraction)?
Result: 0.000324

Cited source for all entries: BigSolDB 2.1
